- experimental.system: T1, CRBN, Q96SW2;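 also: pooled lentiviral library of zinc finger degron-EGFP fusions in mCherry-positive Jurkat cells, FACS-sorted after compound exposure, with degron abundance counted by next-generation sequencing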
- T1 chain: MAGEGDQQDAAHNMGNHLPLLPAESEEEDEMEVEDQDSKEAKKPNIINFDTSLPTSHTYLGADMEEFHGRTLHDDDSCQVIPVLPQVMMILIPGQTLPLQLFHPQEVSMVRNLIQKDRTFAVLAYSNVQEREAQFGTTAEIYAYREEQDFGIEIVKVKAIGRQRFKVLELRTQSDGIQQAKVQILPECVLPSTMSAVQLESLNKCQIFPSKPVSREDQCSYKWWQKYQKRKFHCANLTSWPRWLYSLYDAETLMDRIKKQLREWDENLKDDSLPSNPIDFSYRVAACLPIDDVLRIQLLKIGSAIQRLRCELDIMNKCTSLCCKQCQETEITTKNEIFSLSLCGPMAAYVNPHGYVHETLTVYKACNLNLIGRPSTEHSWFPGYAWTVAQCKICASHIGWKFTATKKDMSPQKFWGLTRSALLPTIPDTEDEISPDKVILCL
- test.name: log2 fold change of degron read counts, EGFP-low vs EGFP+ sorted cells (limma voom), compound-induced degradation; higher = more compound-induced degradation of the degron-EGFP fusion; degrons are variants of IKZF1/3 zinc finger 2; compound dose not given here
- stated.conditions: Jurkat; 18 h; compound: compound 22 (5-morpholino-thalidomide)
Whole data set: some 8,300 sequences, median “log2 fold change of degron read counts, EGFP-low vs EGFP+ sorted cells (limma voom), compound-induced degradation” near -1.1, cut for the highest 2% near 3.2. Many of the other results were omitted from the sample, so the highest values are more common in it than they were.
Lab note: anything with log2 fold change of degron read counts at or over -2 counts as rule met; the rest go in rule not met.

residues	group
FHCEVCGAWFTQKGNLLRHIKL [46F_47H_49E_50V_52G_53A_54W_55F_67L_, Q9UKT9]	rule met
FRCEICGRSFTQKGNLLRHIKL [46F_47R_49E_50I_52G_53R_54S_55F_67L_, Q9UKT9]	rule not met
FVCDQCGAFFTQKGNLLRHIKL [46F_47V_49D_50Q_52G_53A_54F_55F_67L_, Q9UKT9]	rule not met
LCCEICGFSCTQKGNLLRHIKL [46L_47C_49E_50I_52G_53F_54S_55C_67L_, Q9UKT9]	rule met
FMCPVCGAHFTQKGNLLRHIKL [46F_47M_49P_50V_52G_53A_54H_55F_67L_, Q9UKT9]	rule met
FGCPVCGAHFTQKGNLLRHIKL [46F_47G_49P_50V_52G_53A_54H_55F_67L_, Q9UKT9]	rule met
FMCDICGAMFTQKGNLLRHIKL [46F_47M_49D_50I_52G_53A_54M_55F_67L_, Q9UKT9]	rule met
LACEICGFLCTQKGNLLRHIKL [46L_47A_49E_50I_52G_53F_54L_55C_67L_, Q9UKT9]	rule met
LECPICGFVCTQKGNLLRHIKL [46L_47E_49P_50I_52G_53F_54V_55C_67L_, Q9UKT9]	rule met
FWCPVCGAHFTQKGNLLRHIKL [46F_47W_49P_50V_52G_53A_54H_55F_67L_, Q9UKT9]	rule met
FNCNICGAAFTQKGNLLRHIKL [46F_47N_49N_50I_52G_53A_54A_55F_67L_, Q9UKT9]	rule met
FNCEQCGACFTQKGNLLRHIKL [46F_47N_49E_50Q_52G_53A_54C_55F_67L_, Q9UKT9]	rule not met
FECEICGHGFTQKGNLLRHIKL [46F_47E_49E_50I_52G_53H_54G_55F_67L_, Q9UKT9]	rule not met
FQCEICGRNFTQKGNLLRHIKL [46F_47Q_49E_50I_52G_53R_54N_55F_67L_, Q9UKT9]	rule not met
FECPICGRRFTQKGNLLRHIKL [46F_47E_49P_50I_52G_53R_54R_55F_67L_, Q9UKT9]	rule met
